Measured MIC, listed per entry.
tested on: P. aeruginosa ESBL 1 DSM-24600; assay: MIC determination, larger panel; assay type: cell-based; settings: Pseudomonas aeruginosa, DSM24600, read-out: MIC P. aeruginosa ESBL 1

Sample records with MIC:
INSERT INTO assay_data (molecule, measured_endpoint, result) VALUES
  ('CC(C)Oc1c(NC(=O)c2ccc(NC(=O)c3ccc(NC(=O)[C@H](CC(N)=O)NC(=O)c4ccc(NC(=O)c5ccc(C#N)s5)cc4)cc3)c(OC(C)C)c2O)ccc(C(=O)O)c1O', 'MIC', '> 64 µg/mL'),
  ('CC(C)Oc1c(NC(=O)c2ccc(NC(=O)c3ccc(NC(=O)[C@H](CC(N)=O)NC(=O)c4ccc(NC(=O)c5ccc(C#N)cn5)cc4)cc3)c(OC(C)C)c2O)ccc(C(=O)O)c1O', 'MIC', '> 64 µg/mL');

# next molecule below
Q: Answer with the recorded MIC of CC(C)Oc1c(-n2cc(-c3ccc(NC(=O)C(CC(N)=O)NC(=O)c4ccc(NC(=O)c5ccc(C#N)cc5)cc4)cc3)nn2)ccc(C(=O)Nc2ccc(C(=O)O)cc2)c1O (stereo not drawn) only.
Result: 16 µg/mL

----------
test system: P. aeruginosa WT PA14; assay: MIC determination; format: cell-based, Pseudomonas aeruginosa; settings: Pseudomonas aeruginosa, PA14, read-out: MIC P. aeruginosa WT, PA14
measured_endpoint: MIC

Please review the following examples before continuing.
INSERT INTO results (smi, result) VALUES
  ('CC(C)Oc1c(NC(=O)c2ccc(NC(=O)[C@H](CC(N)=O)NC(=O)c3ccc(NC(=O)c4ccc([N+](=O)[O-])cc4)cc3)cc2)ccc(C(=O)Nc2ccc(C(=O)O)cc2)c1O', '> 64 µg/mL'),
  ('CC(C)Oc1c(NC(=O)c2ccc(NC(=O)c3ccc(NC(=O)[C@H](CC(N)=O)NC(=O)c4ccc(NC(=O)c5ccc(C#N)cc5)cc4)cc3)c(OC(C)C)c2O)ccc(C(=O)O)c1O', '2 µg/mL'),
  ('CC(C)Oc1cc(C(=O)Nc2ccc(C(=O)O)cc2)ccc1NC(=O)c1ccc(NC(=O)[C@H](CC(N)=O)NC(=O)c2ccc(NC(=O)c3ccc([N+](=O)[O-])cc3)cc2)cc1', '> 64 µg/mL');

Q: Print P. aeruginosa WT PA14 MIC for COC(=O)c1ccc(NC(=O)c2ccc(NC(=O)c3ccc(NC(=O)[C@H](CC(N)=O)NC(=O)c4ccc(NC(=O)c5ccc([N+](=O)[O-])cc5)cc4)cc3)c(OC(C)C)c2)cc1 .
Result: > 64 µg/mL

Q: Enter MIC (test system P. aeruginosa WT PA14) for CC(C)Oc1c(NC(=O)c2ccc(NC(=O)c3ccc(NC(=O)[C@H](CC(N)=O)NC(=O)c4ccc(NC(=O)c5ccc(C#N)s5)cc4)cc3)c(OC(C)C)c2O)ccc(C(=O)O)c1O
Result: > 64 µg/mL

Q: Provide P. aeruginosa WT PA14 MIC reading for CC(C)COc1c(NC(=O)c2ccc(NC(=O)[C@H](CC(N)=O)NC(=O)c3ccc(NC(=O)c4ccc([N+](=O)[O-])cc4)cc3)cc2)ccc(C(=O)Nc2ccc(C(=O)O)cc2)c1O .
Result: > 64 µg/mL

Q: State the measured MIC (P. aeruginosa WT PA14) of C/C(=C\c1ccc(C#N)cc1)C(=O)Nc1ccc(C(=O)N[C@@H](CC(N)=O)C(=O)Nc2ccc(C(=O)Nc3ccc(C(=O)Nc4ccc(C(=O)O)c(O)c4OC(C)C)c(O)c3OC(C)C)cc2)cc1
Result: 1 µg/mL
